Assay: Equilibrium solubility of compound at pH 7.4 incubated for 24 to 48 hrs by HPLC analysis
Assay type: physicochemical
Details: buffer, time 24-48 hrs
recorded_metric: solubility thermodynamic

Please review the entries below; each comes with its answer.
# compound_string, test_value
records = [
    ("COC(=O)N[C@H](C(=O)N1CCC[C@H]1c1nc2cc(F)c([C@H]3CC[C@H](c4cc5nc([C@@H]6CCCN6C(=O)[C@@H](NC(=O)OC)[C@@H](C)OC)n(COP(=O)(O)O)c5cc4F)N3c3cc(F)c(N4CCC(c5ccc(F)cc5)CC4)c(F)c3)cc2[nH]1)[C@@H](C)OC", "6.4 µg/mL"),
    ("COC(=O)N[C@H](C(=O)N1CCC[C@H]1c1nc2cc(F)c([C@H]3CC[C@H](c4cc5nc([C@@H]6CCCN6C(=O)[C@@H](NC(=O)OC)[C@@H](C)OC)n(C(=O)OCCCOP(=O)(O)O)c5cc4F)N3c3cc(F)c(N4CCC(c5ccc(F)cc5)CC4)c(F)c3)cc2[nH]1)[C@@H](C)OC", "631 µg/mL"),
    ("COC(=O)N[C@H](C(=O)N1CCC[C@H]1c1nc2cc(F)c([C@H]3CC[C@H](c4cc5c(cc4F)nc([C@@H]4CCCN4C(=O)[C@@H](NC(=O)OC)[C@@H](C)OC)n5COC(=O)[C@@H](N)C(C)C)N3c3cc(F)c(N4CCC(c5ccc(F)cc5)CC4)c(F)c3)cc2[nH]1)[C@@H](C)OC", "< 0.2 µg/mL"),
]

Alright, here's another compound for you.
Can you look up the measured solubility thermodynamic of COC(=O)N[C@H](C(=O)N1CCC[C@H]1c1nc2cc(F)c([C@H]3CC[C@H](c4cc5c(cc4F)nc([C@@H]4CCCN4C(=O)[C@@H](NC(=O)OC)[C@@H](C)OC)n5COC(=O)CCCOP(=O)(O)O)N3c3cc(F)c(N4CCC(c5ccc(F)cc5)CC4)c(F)c3)cc2[nH]1)[C@@H](C)OC for me?
874 µg/mL
